Examples of molecules with documented IC50 follow.
biological target: human 5-HT7 receptor (Homo sapiens (Human)); assay: Test 2: antagonist activity for human 5-HT7 receptor (aequorin luminescence, CHO-K1 cells); conditions: Gα16
Sequence (P34969 whole entry): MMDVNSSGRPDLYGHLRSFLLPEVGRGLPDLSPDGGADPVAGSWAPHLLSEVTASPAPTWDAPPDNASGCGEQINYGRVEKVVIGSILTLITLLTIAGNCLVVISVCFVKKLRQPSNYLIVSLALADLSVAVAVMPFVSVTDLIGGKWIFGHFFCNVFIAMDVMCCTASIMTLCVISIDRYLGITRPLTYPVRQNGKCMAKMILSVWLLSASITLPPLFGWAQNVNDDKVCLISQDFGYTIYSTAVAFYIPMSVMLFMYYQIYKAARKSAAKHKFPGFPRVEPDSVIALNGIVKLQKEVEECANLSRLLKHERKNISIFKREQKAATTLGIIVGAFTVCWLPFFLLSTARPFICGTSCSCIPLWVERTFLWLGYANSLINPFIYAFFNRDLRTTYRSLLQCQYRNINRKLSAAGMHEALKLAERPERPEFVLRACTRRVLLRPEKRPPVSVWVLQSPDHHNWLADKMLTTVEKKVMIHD
readout_label: IC50 (nM)

[[record]]
molecule = "CC(C)N(CCN1CCC(c2noc3cc(F)ccc23)CC1)C(=O)CCO"
target_entity = "human 5-HT7 receptor (Homo sapiens (Human))"
endpoint_result = 81

[[record]]
molecule = "CCN(CCN1CCC(c2noc3cc(F)ccc23)CC1)C(=O)C1CNCCC1O (stereo not drawn)"
target_entity = "human 5-HT7 receptor (Homo sapiens (Human))"
endpoint_result = 72

[[record]]
molecule = "CCN(CCN1CCC(c2noc3ccc(C)cc23)CC1)S(=O)(=O)CCO"
target_entity = "human 5-HT7 receptor (Homo sapiens (Human))"
endpoint_result = 62


All values here come from patent US11339151B2.
